Biological target: recombinant human 17β-HSD1 (Homo sapiens, UniProt P14061)
Construct: made in house; host or cells: Sf9 insect cells (baculovirus, Bac to Bac Expression System); microsomal fraction used
Sequence (P14061 1-328): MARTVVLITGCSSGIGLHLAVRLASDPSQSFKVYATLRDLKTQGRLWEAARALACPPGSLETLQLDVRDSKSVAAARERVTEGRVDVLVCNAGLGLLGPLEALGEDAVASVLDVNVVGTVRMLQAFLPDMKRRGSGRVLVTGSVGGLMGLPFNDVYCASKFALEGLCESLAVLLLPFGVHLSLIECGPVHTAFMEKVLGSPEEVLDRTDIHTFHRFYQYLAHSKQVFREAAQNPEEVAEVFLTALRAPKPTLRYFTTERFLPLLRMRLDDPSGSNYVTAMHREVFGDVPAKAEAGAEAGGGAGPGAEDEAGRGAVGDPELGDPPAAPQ
Assay: Inhibition of recombinant human 17β-HSD1 (HPLC assay, conversion of 3H-estrone to estradiol)
Type: biochemical
Conditions: 0.5 h; 1 μM inhibitor; 30 nM 3H-estrone, 1 mM NADPH, 30 min RT; read-out: inhibition of rec. 17 β-HSD1
METRIC_NAME: inhibition at 1 µM (%)
Reply with just the number (in %).

Illustrative cases are given below, each with its answer.
| SMILES_NOTATION | READOUT_NUMBER |
| --- | --- |
| COc1ccc2c(c1)CC[C@H]1[C@@H]3[C@H](CCCCn4cc(CO)nn4)CC(=O)[C@@]3(C)CC[C@H]21 | 38 |
| C[C@]12CC[C@@H]3c4ccc(O)cc4CC[C@H]3[C@@H]1[C@H](CCn1cc(-c3cc(F)cc(F)c3)nn1)CC2=O | 95 |
| CC(C)CCc1cn(CCCC[C@@H]2CC(=O)[C@@]3(C)CC[C@@H]4c5ccc(O)cc5CC[C@H]4[C@H]23)nn1 | 73 |

Turning now to a further record.
Request: Given `CC(C)CCc1cn(CCCCCC[C@@H]2CC(=O)[C@@]3(C)CC[C@@H]4c5ccc(O)cc5CC[C@H]4[C@H]23)nn1` , respond with its inhibition at 1 µM.
Response: 64

---

Each entry below carries its reported inhibition at 0.1 µM.
Target: recombinant human 17β-HSD1 (Homo sapiens, UniProt P14061)
Construct: made in house; host or cells: Sf9 insect cells (baculovirus, Bac to Bac Expression System); microsomal fraction used
Experiment: Inhibition of recombinant human 17β-HSD1 (HPLC assay, conversion of 3H-estrone to estradiol)
Format: biochemical
Settings: 0.5 h; 100 nM inhibitor; 30 nM 3H-estrone, 1 mM NADPH, 30 min RT; read-out: inhibition of rec. 17 β-HSD1
Reply with just the number (in %).

Illustrative cases are given below, each with its answer.
| COMPOUND | READOUT_NUMBER |
| --- | --- |
| C[C@]12CC[C@@H]3c4ccc(O)cc4CC[C@H]3[C@@H]1[C@H](CCCCCCn1cc(-c3cccc(O)c3)nn1)CC2=O [Compound 100] | 7 |
| CC(C)CCc1cn(CCCC[C@@H]2CC(=O)[C@@]3(C)CC[C@@H]4c5ccc(O)cc5CC[C@H]4[C@H]23)nn1 [Compound 48] | 21 |
| C[C@]12CC[C@@H]3c4ccc(O)cc4CC[C@H]3[C@@H]1[C@H](CCn1cc(-c3cc(F)cc(F)c3)nn1)CC2=O [Compound 5] | 87 |
| COc1ccc2c(c1)CC[C@H]1[C@@H]3[C@H](CCCn4cc(-c5ccc(CO)cc5)nn4)CC(=O)[C@@]3(C)CC[C@H]21 [Compound 60] | 19 |
| CC(C)Cc1cn(CCCCCC[C@@H]2CC(=O)[C@@]3(C)CC[C@@H]4c5ccc(O)cc5CC[C@H]4[C@H]23)nn1 [Compound 58] | 20 |

Request: Given COc1ccc2c(c1)CC[C@H]1[C@@H]3[C@H](CCCn4cc(C5CC5)nn4)CC(=O)[C@@]3(C)CC[C@H]21 [Compound 41] , respond with its inhibition at 0.1 µM.
Response: 23

---

Biological target: recombinant human 17β-HSD1 (Homo sapiens)
Construct: made in house; host or cells: Sf9 insect cells (baculovirus, Bac to Bac Expression System); microsomal fraction used
Sequence (P14061 1-328): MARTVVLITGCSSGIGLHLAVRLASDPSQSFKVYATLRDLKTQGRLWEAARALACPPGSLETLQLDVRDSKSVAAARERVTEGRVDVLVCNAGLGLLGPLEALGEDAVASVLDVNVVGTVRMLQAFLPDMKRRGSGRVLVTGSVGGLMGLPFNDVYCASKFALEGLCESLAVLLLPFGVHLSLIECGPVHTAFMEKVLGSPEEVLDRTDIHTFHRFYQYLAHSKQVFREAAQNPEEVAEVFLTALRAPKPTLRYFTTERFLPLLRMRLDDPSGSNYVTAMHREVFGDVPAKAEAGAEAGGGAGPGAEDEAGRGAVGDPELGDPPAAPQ
Assay: Inhibition of recombinant human 17β-HSD1 (HPLC assay, conversion of 3H-estrone to estradiol)
Format: biochemical
Conditions: 0.5 h; 100 nM inhibitor; 30 nM 3H-estrone, 1 mM NADPH, 30 min RT; read-out: inhibition of rec. 17 β-HSD1
METRIC_NAME: inhibition at 0.1 µM (%)
Reply with just the number (in %).

Illustrative cases are given below, each with its answer.
| SMILES_NOTATION | inhibition at 0.1 µM / % |
| --- | --- |
| COc1ccc2c(c1)CC[C@H]1[C@@H]3[C@H](CCCCn4cc(-c5ccc(C)cc5)nn4)CC(=O)[C@@]3(C)CC[C@H]21 | 12 |
| COc1ccc2c(c1)CC[C@H]1[C@@H]3[C@H](CCCn4cc(-c5ccsc5)nn4)CC(=O)[C@@]3(C)CC[C@H]21 | 18 |
| COc1ccc2c(c1)CC[C@H]1[C@@H]3[C@H](CCCCn4cc(CO)nn4)CC(=O)[C@@]3(C)CC[C@H]21 | 5 |

Turning now to a further record.
Request: Given `COc1ccc2c(c1)CC[C@H]1[C@@H]3[C@H](CCCn4cc(-c5ccccc5[N+](=O)[O-])nn4)CC(=O)[C@@]3(C)CC[C@H]21` , respond with its inhibition at 0.1 µM.
Response: 25

---

Biological target: recombinant human 17β-HSD1 (Homo sapiens)
Construct: made in house; host or cells: Sf9 insect cells (baculovirus, Bac to Bac Expression System); microsomal fraction used
Assay: Inhibition of recombinant human 17β-HSD1 (HPLC assay, conversion of 3H-estrone to estradiol)
Type: biochemical
Settings: 0.5 h; 1 μM inhibitor; 30 nM 3H-estrone, 1 mM NADPH, 30 min RT; read-out: inhibition of rec. 17 β-HSD1
METRIC_NAME: inhibition at 1 µM (%)
Reply with just the number (in %).

Illustrative cases are given below, each with its answer.
| SMILES_NOTATION | inhibition at 1 µM [%] |
| --- | --- |
| COc1ccc(-c2cn(CCC[C@H]3CC(=O)[C@@]4(C)CC[C@@H]5c6ccc(O)cc6CC[C@H]5[C@H]34)nn2)cc1 | 87 |
| COc1ccc2c(c1)CC[C@H]1[C@@H]3[C@H](CCCn4cc(-c5ccc(CO)cc5)nn4)CC(=O)[C@@]3(C)CC[C@H]21 | 69 |
| C[C@]12CC[C@@H]3c4ccc(O)cc4CC[C@H]3[C@@H]1[C@H](CCCCn1cc(CCc3ccccc3)nn1)CC2=O | 80 |
| COc1ccc2c(c1)CC[C@H]1[C@@H]3[C@H](CCCn4cc(-c5ccsc5)nn4)CC(=O)[C@@]3(C)CC[C@H]21 | 69 |
| CC(C)Cc1cn(CCCCCC[C@@H]2CC(=O)[C@@]3(C)CC[C@@H]4c5ccc(O)cc5CC[C@H]4[C@H]23)nn1 | 70 |

Turning now to a further record.
Request: Give inhibition at 1 µM only, for `C[C@]12CC[C@@H]3c4ccc(O)cc4CC[C@H]3[C@@H]1[C@H](CCCCCCn1cc(-c3cccc(O)c3)nn1)CC2=O` , using recombinant human 17β-HSD1 (Homo sapiens) data.
Response: 48

---

Target: recombinant human 17β-HSD1 (Homo sapiens)
Construct: made in house; host or cells: Sf9 insect cells (baculovirus, Bac to Bac Expression System); microsomal fraction used
Experiment: Inhibition of recombinant human 17β-HSD1 (HPLC assay, conversion of 3H-estrone to estradiol)
Type: biochemical
Conditions: 0.5 h; 100 nM inhibitor; 30 nM 3H-estrone, 1 mM NADPH, 30 min RT; read-out: inhibition of rec. 17 β-HSD1
METRIC_NAME: inhibition at 0.1 µM (%)
Reply with just the number (in %).

Illustrative cases are given below, each with its answer.
| SMILES_NOTATION | READOUT_NUMBER |
| --- | --- |
| C[C@]12CC[C@@H]3c4ccc(O)cc4CC[C@H]3[C@@H]1[C@H](CCCCn1cc(CCc3ccccc3)nn1)CC2=O | 20 |
| COc1ccc(-c2cn(CCC[C@H]3CC(=O)[C@@]4(C)CC[C@@H]5c6ccc(O)cc6CC[C@H]5[C@H]34)nn2)cc1 | 51 |
| C[C@]12CC[C@@H]3c4ccc(O)cc4CC[C@H]3[C@@H]1[C@@H](CCCn1cc(CCc3ccccc3)nn1)CC2=O | 38 |
| CC(C)CCc1cn(CCCCCC[C@@H]2CC(=O)[C@@]3(C)CC[C@@H]4c5ccc(O)cc5CC[C@H]4[C@H]23)nn1 | 30 |
| COc1ccc2c(c1)CC[C@H]1[C@@H]3[C@H](CCCCn4cc(C5CC5)nn4)CC(=O)[C@@]3(C)CC[C@H]21 | 4 |

Turning now to a further record.
Request: Given `Cc1ccc(-c2cn(CCC[C@H]3CC(=O)[C@@]4(C)CC[C@@H]5c6ccc(O)cc6CC[C@H]5[C@H]34)nn2)cc1` , respond with its inhibition at 0.1 µM.
Response: 49
